Reported IC50, Maltase-glucoamylase (Homo sapiens, UniProt O43451).
measurement label: IC50 (µM)

(A) C=C1CC[C@@H]2[C@](C)(CO)[C@H](O)CC[C@@]2(C)[C@@H]1/C=C/C1=CC(=C/c2cc(OC)c(OC)cc2OC)/OC1=O
(B) C=C1CC[C@@H]2[C@](C)(COC(=O)c3cccnc3)[C@H](OC(=O)c3cccnc3)CC[C@@]2(C)[C@@H]1/C=C/C1=CC(=C\c2ccc(Cl)cc2)/OC1=O
(C) C=C1CC[C@@H]2[C@](C)(COC(=O)c3cccnc3)[C@H](OC(=O)c3cccnc3)CC[C@@]2(C)[C@@H]1/C=C/C1=CC(=C/c2ccco2)/OC1=O
*Q* Hi! Can you put these in order of IC50, lowest number first? Sort and list the labels as requested.
*A* B, C, A
(B: 6 µM, C: 36 µM, A: 84 µM)
